molecular target: UniProt P10635; experiment: Inhibition of CYP2D6 in human liver microsomes using dextromethorphan as substrate at 10 uM preincubated with compound for 5 mins followed by NADPH addition and measured after 20 mins by LC-MS/MS analysis relative to control; format: ADME, Microsome; settings: probe dextromethorphan, time 25 min
Sequence (P10635 whole entry): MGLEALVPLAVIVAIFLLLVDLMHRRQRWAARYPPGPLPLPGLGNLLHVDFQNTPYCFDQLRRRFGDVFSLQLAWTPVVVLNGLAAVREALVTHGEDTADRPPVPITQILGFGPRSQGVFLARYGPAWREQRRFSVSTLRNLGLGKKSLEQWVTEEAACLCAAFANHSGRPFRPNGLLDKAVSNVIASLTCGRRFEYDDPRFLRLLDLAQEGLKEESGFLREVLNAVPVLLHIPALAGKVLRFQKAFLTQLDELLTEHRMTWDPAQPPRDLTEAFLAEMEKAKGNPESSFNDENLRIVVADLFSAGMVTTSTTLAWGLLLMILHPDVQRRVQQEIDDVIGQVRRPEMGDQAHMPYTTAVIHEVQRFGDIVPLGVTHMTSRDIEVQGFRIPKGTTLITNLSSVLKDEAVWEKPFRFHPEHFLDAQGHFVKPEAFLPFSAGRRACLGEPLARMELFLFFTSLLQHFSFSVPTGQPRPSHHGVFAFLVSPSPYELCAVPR
REPORTED_METRIC: inhibition at 20 min, 10 µM

MOLECULE_SMILES | STUDY_SYSTEM | READOUT_VALUE
CN(C)C1CCN(C(=O)c2cc3ccccc3n2CC2CCCCC2)CC1 | UniProt P10635 | 19.1%

---

Below: a set of entries, each annotated with reported selectivity ratio.
assay: Selectivity index, ratio of CC50 for cytotoxicity against human A549 cells to EC50 for antiviral activity against pseudotyped EBOV Mayinga infected in human A549 cells assessed as inhibition of Pseudoviral entry; assay type: toxicity, cell-based; settings: read-out: Ratio CC50/EC50

MOLECULE_SMILES | QUALIFIER | selectivity ratio
CN(C)CCNC(=O)c1cc2occc2n1Cc1ccccc1 | = | 22
O=C(Nc1ccc(N2CCC(F)(F)CC2)cc1)c1cc2occc2n1Cc1ccc(Cl)cc1 | = | 8.6
CN(C)CCNC(=O)c1cc2ccccc2n1Cc1ccccc1 | = | 24
CN1CCCN(C(=O)c2cc3occc3n2Cc2ccc(Cl)cc2)CC1 | = | 71
CN(C)C1CCN(C(=O)c2cc3ccccc3n2C)CC1 | > | 6.1

---

assay: Selectivity index, ratio of CC50 for cytotoxicity against human A549 cells to EC50 for antiviral activity against pseudotyped EBOV Mayinga infected in human A549 cells assessed as inhibition of Pseudoviral entry; format: toxicity, cell-based; settings: read-out: Ratio CC50/EC50

MOLECULE_SMILES | QUALIFIER | selectivity ratio
CN(C)C1CCN(C(=O)CN(Cc2ccccc2)c2ccccc2)CC1 | = | 9.4
CN(C)CC1CN(C(=O)c2cc3occc3n2Cc2ccc(Cl)cc2)C1 | = | 46
CC1CCN(c2ccc(NC(=O)c3cc4occc4n3Cc3ccc(Cl)cc3)cc2C(F)(F)F)CC1 | = | 25
O=C(c1cc2sccc2n1Cc1ccc(Cl)cc1)N1CCN(C2CCCCC2)CC1 | = | 4.9
CN(C)CCNC(=O)c1cn(Cc2ccccc2)c2ccccc12 | = | 21
CCN(CC)CCNC(=O)c1cc2occc2n1Cc1ccc(Cl)cc1 | = | 38
CN1CCCN(C(=O)c2cc3occc3n2Cc2cccc(C(F)(F)F)c2)CC1 | = | 40
CN1CCN(C(=O)c2cc3sccc3n2Cc2ccc(Cl)cc2)CC1 | = | 10
O=C(c1cc2ccccc2n1Cc1ccccc1)N1CCCCC1 | = | 11
CC(C)N1CCN(C(=O)c2cc3occc3n2Cc2cccc(C(F)(F)F)c2)CC1 | = | 29
CN(C)CCNC(=O)c1cc2ccccc2n1Cc1ccc(-c2ccccc2)cc1 | = | 5.9
CN(C)C1CCN(C(=O)c2cc3ccccc3n2Cc2ccncc2)CC1 | > | 6.2
CN(C)C1CCN(C(=O)c2cc3ccccc3n2CC2CCCCC2)CC1 | = | 170
CN(C)CCNC(=O)c1cc2ccccc2n1Cc1ccc(F)cc1 | = | 16
CN(C)CCNC(=O)c1cc2occc2n1Cc1cccc(C(F)(F)F)c1 | = | 32
CN1CCN(CCCNC(=O)c2cc3occc3n2Cc2ccc(Cl)cc2)CC1 | = | 42
CN(C)CCNC(=O)c1cn(Cc2ccc(F)cc2)c2ccccc12 | = | 21
CN(C)C1CCN(C(=O)c2cc3sccc3n2Cc2ccc(Cl)cc2)CC1 | = | 61
CC(C)N1CCN(C(=O)c2cc3sccc3n2Cc2ccc(Cl)cc2)CC1 | = | 17
CN(C)C1CCN(C(=O)c2cc3ccccc3n2Cc2ccc(F)cc2)CC1 | = | 100
CN(C)CCNC(=O)c1cc2occc2n1Cc1ccc(Cl)cc1 | = | 50
CN(C)C1CCN(C(=O)c2cc3occc3n2C(=O)OCc2ccccc2)CC1 | > | 60
CN(C)C1CCN(C(=O)c2cccn2Cc2ccccc2)CC1 | = | 90
CN(C)C1CCN(C(=O)c2cc3occc3n2Cc2ccc(Cl)cc2)CC1 | = | 58
CN(C)C1CCN(C(=O)c2cc3occc3n2Cc2ccc(F)cc2)CC1 | > | 25
CN(C)CCNC(=O)c1cc2occc2n1Cc1ccc(Cl)c(C(F)(F)F)c1 | = | 17
CN(C)CCCNC(=O)c1cc2occc2n1Cc1ccc(Cl)cc1 | = | 36
CN(C)CCNC(=O)c1cc2sccc2n1Cc1ccc(Cl)cc1 | = | 19
CN(C)C1CCN(C(=O)c2cn(Cc3ccc(F)cc3)c3ccccc23)CC1 | = | 30
CN(C)CCNC(=O)c1cc2ccccc2n1Cc1ccc(Cl)cc1 | = | 8.4
O=C(NCCCn1ccnc1)c1cc2occc2n1Cc1ccc(Cl)cc1 | = | 16
CCOc1ncc(NC(=O)c2cc3occc3n2Cc2ccc(Cl)cc2)cc1F | = | 41
CN(C)CCNC(=O)c1cc2occc2n1Cc1ccc(F)cc1 | > | 38
CN(C)C1CCN(C(=O)c2cc3ccccc3n2Cc2ccc(Cl)cc2)CC1 | = | 44
O=C(NCCN1CCC1)c1cc2occc2n1Cc1cccc(C(F)(F)F)c1 | = | 20
CN(C)C1CCN(C(=O)c2cc3ccccc3n2Cc2cccnc2)CC1 | > | 19
CN(C)C1CCN(C(=O)c2cc3ccccc3n2Cc2ccc(-c3ccccc3)cc2)CC1 | = | 14
CN(C)CCNC(=O)c1cc2occc2n1C | = | 1
CN(C)CCNC(=O)c1cc2occc2n1C(=O)OCc1ccccc1 | > | 12
O=C(NCCCn1ccnc1)c1cc2occc2n1Cc1cccc(C(F)(F)F)c1 | = | 13
O=C(Nc1ccc(N2CCOCC2)cc1)c1cc2occc2n1Cc1ccc(Cl)cc1 | = | 1
CN(C)C1CCN(C(=O)c2cc3occc3n2Cc2cccc(C(F)(F)F)c2)CC1 | = | 67
CN1CCCN(C(=O)c2cc3sccc3n2Cc2ccc(Cl)cc2)CC1 | = | 24

---

assay: Selectivity index, ratio of CC50 for cytotoxicity against human A549 cells to EC50 for antiviral activity against pseudotyped Marburgvirus Angola infected in human A549 cells assessed as inhibition of Pseudoviral entry; format: toxicity, cell-based; details: read-out: Ratio CC50/EC50

MOLECULE_SMILES | QUALIFIER | selectivity ratio
CN1CCCN(C(=O)c2cc3occc3n2Cc2ccc(Cl)cc2)CC1 | = | 9.6
CN(C)C1CCN(C(=O)c2cc3ccccc3n2Cc2ccc(F)cc2)CC1 | = | 13
CN(C)CCNC(=O)c1cc2ccccc2n1Cc1ccc(Cl)cc1 | = | 7.5
CN(C)CCNC(=O)c1cc2occc2n1Cc1ccc(Cl)cc1 | = | 9.8
CN1CCN(C(=O)c2cc3sccc3n2Cc2ccc(Cl)cc2)CC1 | = | 4.1
CN(C)C1CCN(C(=O)c2cc3ccccc3n2C)CC1 | < | 1
CN(C)CCNC(=O)c1cc2ccccc2n1Cc1ccc(-c2ccccc2)cc1 | = | 14
CN1CCN(CCCNC(=O)c2cc3occc3n2Cc2ccc(Cl)cc2)CC1 | = | 10
CN(C)CCCNC(=O)c1cc2occc2n1Cc1ccc(Cl)cc1 | = | 13
CN1CCCN(C(=O)c2cc3occc3n2Cc2cccc(C(F)(F)F)c2)CC1 | = | 8.1
CN(C)C1CCN(C(=O)c2cc3ccccc3n2Cc2ccccc2)CC1 | = | 9.6
O=C(c1cc2ccccc2n1Cc1ccccc1)N1CCCCC1 | = | 11

---

experiment: Selectivity index, ratio of CC50 for cytotoxicity against human A549 cells to EC50 for antiviral activity against pseudotyped Marburgvirus Angola infected in human A549 cells assessed as inhibition of Pseudoviral entry; assay type: toxicity, cell-based; settings: read-out: Ratio CC50/EC50
REPORTED_METRIC: selectivity ratio

MOLECULE_SMILES | QUALIFIER | READOUT_VALUE
CN(C)C1CCN(C(=O)c2cc3ccccc3n2CC2CCCCC2)CC1 | = | 15
O=C(c1cc2sccc2n1Cc1ccc(Cl)cc1)N1CCN(C2CCCCC2)CC1 | = | 3.8
CN(C)CCNC(=O)c1cc2sccc2n1Cc1ccc(Cl)cc1 | = | 13
CN(C)C1CCN(C(=O)c2cc3ccccc3n2Cc2ccncc2)CC1 | = | 27
CN(C)C1CCN(C(=O)c2cc3ccccc3n2Cc2cccnc2)CC1 | = | 2.6
CC1CCN(c2ccc(NC(=O)c3cc4occc4n3Cc3ccc(Cl)cc3)cc2C(F)(F)F)CC1 | = | 7.4
CN(C)C1CCN(C(=O)c2cc3occc3n2C(=O)OCc2ccccc2)CC1 | > | 3.4
O=C(Nc1ccc(N2CCOCC2)cc1)c1cc2occc2n1Cc1ccc(Cl)cc1 | = | 1
CN(C)CC1CN(C(=O)c2cc3occc3n2Cc2ccc(Cl)cc2)C1 | = | 12
CN(C)C1CCN(C(=O)c2cc3occc3n2Cc2ccc(F)cc2)CC1 | > | 8.8
CN(C)CCNC(=O)c1cc2occc2n1Cc1ccc(Cl)c(C(F)(F)F)c1 | = | 10
CN(C)CCNC(=O)c1cc2ccccc2n1Cc1ccccc1 | = | 9.5
CN(C)CCNC(=O)c1cn(Cc2ccccc2)c2ccccc12 | = | 6.1
CC(C)N1CCN(C(=O)c2cc3sccc3n2Cc2ccc(Cl)cc2)CC1 | = | 3.1
CN(C)C1CCN(C(=O)c2cc3ccccc3n2Cc2ccc(Cl)cc2)CC1 | < | 1
CCOc1ncc(NC(=O)c2cc3occc3n2Cc2ccc(Cl)cc2)cc1F | = | 1
O=C(Nc1ccc(N2CCC(F)(F)CC2)cc1)c1cc2occc2n1Cc1ccc(Cl)cc1 | = | 1
CN(C)CCNC(=O)c1cc2occc2n1C | = | 1
CN(C)CCNC(=O)c1cc2occc2n1C(=O)OCc1ccccc1 | > | 3.1
CCN(CC)CCNC(=O)c1cc2occc2n1Cc1ccc(Cl)cc1 | = | 17
CN(C)CCNC(=O)c1cc2ccccc2n1Cc1ccc(F)cc1 | = | 8.9
CN(C)C1CCN(C(=O)c2cc3sccc3n2Cc2ccc(Cl)cc2)CC1 | = | 15
